# Tested on: 996289-038-R-J1-PDC complex spheroid viability
# Run Description: Anticancer human tumor 996289-038-R-J1-PDC patient-derived colon adenocarcinoma cell line growth inhibition [CLK]
# Conditions: second compound 1 µM; first compound 0.316 µM; active compounds read low
Kindly supply the reported viability, T/C values for the records listed here.
Numbers only, in %.

Compound	Measurement Label	Readout Number
COc1ccc([C@@H](O)c2cc(-c3ncnc4cc(N5CCOCC5)ccc34)c(F)cc2Cl)nn1 + CNC(=O)c1ccc(Nc2nc(OC3CCCC3)c3c(-c4ccc5nc(C)oc5c4)c[nH]c3n2)c(OC)c1	viability, T/C	58.4
CC(Nc1ccc2c(c1)OCCn1cc(N3C(=O)OCC3C(F)F)nc1-2)C(N)=O (stereo not given) + CN1CCN(c2cc(C(=O)Nc3cc4cc(-c5cnn(C)c5)ccc4cn3)ccn2)CC1	viability, T/C	2.23
CCN1CCN(Cc2ccc(Nc3ncc(F)c(-c4cc(F)c5nc(C)n(C(C)C)c5c4)n3)nc2)CC1 + CNC(=O)c1ccc(Nc2nc(OC3CCCC3)c3c(-c4ccc5nc(C)oc5c4)c[nH]c3n2)c(OC)c1	viability, T/C	64.8
COc1cccc2c1C(=O)c1c(O)c3c(c(O)c1C2=O)CC(O)(C(=O)CO)CC3OC1CC(N)C(O)C(C)O1 (stereo not given) + CN1CCN(c2cc(C(=O)Nc3cc4cc(-c5cnn(C)c5)ccc4cn3)ccn2)CC1	viability, T/C	4.01

Read the next record carefully.
QUERY: Value lookup for viability, T/C; key = CC1(C)CCC(CN2CCN(c3ccc(C(=O)NS(=O)(=O)c4ccc(NCC5CCOCC5)c([N+](=O)[O-])c4)c(Oc4cnc5[nH]ccc5c4)c3)CC2)=C(c2ccc(Cl)cc2)C1 + CNC(=O)c1ccc(Nc2nc(OC3CCCC3)c3c(-c4ccc5nc(C)oc5c4)c[nH]c3n2)c(OC)c1
RESULT: 74

====

# Tested on: 996289-038-R-J1-PDC complex spheroid viability
# Run Description: Anticancer human tumor 996289-038-R-J1-PDC cell line growth inhibition [CLK];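 also: spheroids exposed to the agents for 7 days before readout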
# Conditions: second compound 0.316 µM; first compound 0.3 µM; active compounds read low
# Text: A high-throughput screen of multi-cell type tumor spheroids was designed to identify active combinations of […] and targeted small molecules. Complex spheroids include a stromal component modeled by human endothelial cells (HUVEC) and fibroblasts modeled by human mesenchymal stem cells (MSCs). […] Compounds. […] If the clinical Cmax for an agent had not been determined, the highest concentration tested was 10 microM. […]
# note: exactly 1% is not below, so it is NO; use YES for viability, T/C strictly under it

Examples with answers:
Molecule	Study System	Assigned Class
C=CC(=O)Nc1cc(Nc2nccc(-c3cn(C)c4ccccc34)n2)c(OC)cc1N(C)CCN(C)C + CNC(=O)c1ccc(Nc2nc(OC3CCCC3)c3c(-c4ccc5nc(C)oc5c4)c[nH]c3n2)c(OC)c1	996289-038-R-J1-PDC complex spheroid viability	NO
NC(=O)C(=Cn1cnc(-c2cc(C(F)(F)F)cc(C(F)(F)F)c2)n1)c1cncnc1 + CNC(=O)c1ccc(Nc2nc(OC3CCCC3)c3c(-c4ccc5nc(C)oc5c4)c[nH]c3n2)c(OC)c1	996289-038-R-J1-PDC complex spheroid viability	NO
CC(C)CC(NC(=O)C(Cc1ccccc1)NC(=O)c1cnccn1)B(O)O (stereo unspecified) + CNC(=O)c1ccc(Nc2nc(OC3CCCC3)c3c(-c4ccc5nc(C)oc5c4)c[nH]c3n2)c(OC)c1	996289-038-R-J1-PDC complex spheroid viability	NO

QUERY: Hello, is viability, T/C of the following molecule strictly smaller than 1%? NC(=O)C(=Cn1cnc(-c2cc(C(F)(F)F)cc(C(F)(F)F)c2)n1)c1cncnc1 + CN1CCN(c2cc(C(=O)Nc3cc4cc(-c5cnn(C)c5)ccc4cn3)ccn2)CC1
RESULT: YES

QUERY: Hello, is viability, T/C of the following molecule strictly smaller than 1%? CC(C)CC(NC(=O)C(Cc1ccccc1)NC(=O)c1cnccn1)B(O)O (stereo unspecified) + CN1CCN(c2cc(C(=O)Nc3cc4cc(-c5cnn(C)c5)ccc4cn3)ccn2)CC1
RESULT: NO

QUERY: Hello, is viability, T/C of the following molecule strictly smaller than 1%? C=CC(=O)Nc1cc(Nc2nccc(-c3cn(C)c4ccccc34)n2)c(OC)cc1N(C)CCN(C)C + CN1CCN(c2cc(C(=O)Nc3cc4cc(-c5cnn(C)c5)ccc4cn3)ccn2)CC1
RESULT: NO

====

Kindly supply the reported viability, T/C values for the records listed here.
# Tested on: 996289-038-R-J1-PDC complex spheroid viability
# Run Description: Anticancer human tumor 996289-038-R-J1-PDC cell line growth inhibition [CLK];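 also: spheroids exposed to the agents for 7 days before readout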
# Conditions: second compound 0.0316 µM; first compound 0.1 µM; active compounds read low
# Text: A high-throughput screen of multi-cell type tumor spheroids was designed to identify active combinations of […] and targeted small molecules. Complex spheroids include a stromal component modeled by human endothelial cells (HUVEC) and fibroblasts modeled by human mesenchymal stem cells (MSCs). […] Compounds. […] If the clinical Cmax for an agent had not been determined, the highest concentration tested was 10 microM. […]
Give bare numbers, in %.

Some solved entries appear below for comparison.
Compound	Display Unit	viability, T/C
COC1C=CCC(C)C(C)S(=O)(=O)NC(=O)c2ccc3c(c2)N(CC2CCC21)CC1(CCCc2cc(Cl)ccc21)CO3 (stereo not given) + CN1CCN(c2cc(C(=O)Nc3cc4cc(-c5cnn(C)c5)ccc4cn3)ccn2)CC1	%	106
COc1cccc2c1C(=O)c1c(O)c3c(c(O)c1C2=O)CC(O)(C(=O)CO)CC3OC1CC(N)C(O)C(C)O1 (stereo not given) + CNC(=O)c1ccc(Nc2nc(OC3CCCC3)c3c(-c4ccc5nc(C)oc5c4)c[nH]c3n2)c(OC)c1	%	98.7
COc1c(OCCCN2CCOCC2)ccc2c3n(c(=NC(=O)c4cnc(N)nc4)nc12)CCN3 + CN1CCN(c2cc(C(=O)Nc3cc4cc(-c5cnn(C)c5)ccc4cn3)ccn2)CC1	%	43.9
CC(CO)NC(=O)c1cc(-c2ccc(Cl)cc2)nn(-c2cnn(C)c2)c1=O (stereo not given) + CNC(=O)c1ccc(Nc2nc(OC3CCCC3)c3c(-c4ccc5nc(C)oc5c4)c[nH]c3n2)c(OC)c1	%	111

QUERY: I'm curious: which viability, T/C was measured for CC1(C)CCC(CN2CCN(c3ccc(C(=O)NS(=O)(=O)c4ccc(NCC5CCOCC5)c([N+](=O)[O-])c4)c(Oc4cnc5[nH]ccc5c4)c3)CC2)=C(c2ccc(Cl)cc2)C1 + CN1CCN(c2cc(C(=O)Nc3cc4cc(-c5cnn(C)c5)ccc4cn3)ccn2)CC1 tested on 996289-038-R-J1-PDC complex spheroid viability?
RESULT: 92.1

====

# Tested on: 996289-038-R-J1-PDC complex spheroid viability
# Run Description: Anticancer human tumor 996289-038-R-J1-PDC cell line growth inhibition [CLK];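 also: spheroids exposed to the agents for 7 days before readout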
# Conditions: second compound 10 µM; first compound 0.00949 µM; active compounds read low
Kindly supply the reported viability, T/C values for the records listed here.

Molecule	Study System	viability, T/C
CC(C)CC(NC(=O)C(Cc1ccccc1)NC(=O)c1cnccn1)B(O)O (stereo unspecified) + CN1CCN(c2cc(C(=O)Nc3cc4cc(-c5cnn(C)c5)ccc4cn3)ccn2)CC1	996289-038-R-J1-PDC complex spheroid viability	1.47%
CC(C)CC(NC(=O)C(Cc1ccccc1)NC(=O)c1cnccn1)B(O)O (stereo unspecified) + CNC(=O)c1ccc(Nc2nc(OC3CCCC3)c3c(-c4ccc5nc(C)oc5c4)c[nH]c3n2)c(OC)c1	996289-038-R-J1-PDC complex spheroid viability	1.51%
C=CC(=O)Nc1cc(Nc2nccc(-c3cn(C)c4ccccc34)n2)c(OC)cc1N(C)CCN(C)C + CNC(=O)c1ccc(Nc2nc(OC3CCCC3)c3c(-c4ccc5nc(C)oc5c4)c[nH]c3n2)c(OC)c1	996289-038-R-J1-PDC complex spheroid viability	55%
NC(=O)C(=Cn1cnc(-c2cc(C(F)(F)F)cc(C(F)(F)F)c2)n1)c1cncnc1 + CNC(=O)c1ccc(Nc2nc(OC3CCCC3)c3c(-c4ccc5nc(C)oc5c4)c[nH]c3n2)c(OC)c1	996289-038-R-J1-PDC complex spheroid viability	44.5%
NC(=O)C(=Cn1cnc(-c2cc(C(F)(F)F)cc(C(F)(F)F)c2)n1)c1cncnc1 + CN1CCN(c2cc(C(=O)Nc3cc4cc(-c5cnn(C)c5)ccc4cn3)ccn2)CC1	996289-038-R-J1-PDC complex spheroid viability	0.52%

Read the next record carefully.
QUERY: Value lookup for viability, T/C; key = C=CC(=O)Nc1cc(Nc2nccc(-c3cn(C)c4ccccc34)n2)c(OC)cc1N(C)CCN(C)C + CN1CCN(c2cc(C(=O)Nc3cc4cc(-c5cnn(C)c5)ccc4cn3)ccn2)CC1
RESULT: 0.99%
